The reported numbers originate from the domain aggregation screens of Martell et al. (2025).

Experiment summary: soluble fraction after stress (log2 fold change); higher = more stays soluble; pooled small domains, quantitative proteomics
Measurement context: stress: pH 4
Endpoint: soluble fraction (log2)
Please give the numeric answer without any surrounding text.

Give recorded soluble fraction (log2). HMEIEIPEELQNKFAEIPELKTAFESLTPGRQRAYVLYFSQPKQSKTREARIEKYIPHILDGKGMN
0.0591

State its soluble fraction (log2): HMLLSHTAQREGELLTFLRGELALSSGLVKRLKWQNAFFLDGAPVHTNARVKPGQEITVRIEE
-1.09

Indicate the recorded soluble fraction (log2) value for this sequence: HMDDVGERIRKIREEKNLSLDEISKMTGFDVEFLAKIENKERQPQLGTVIKLSKALDSAFGRL
-0.0445

Give a short answer stating reported soluble fraction (log2) for HMNHAPSLMRKIRRGLKEGRNPDDLLVNAKSISDYYYRSLSFYLLAPHFSSKSKQYKQVISLANS .
-0.151

Specify soluble fraction (log2) for HMDVLNPGDKAVTTASWLNFRTGPGMQNKVASVLARNTTVNIIEKSNEWYKVSLANGSTGYVHGMYLSKIT and stop.
0.105

Let me know recorded soluble fraction (log2) for HMGLIAPMPGQIRSVAVSVGDVVKKGQTLLTMEAMKMEIRIQALKDGRVTALHAAQGQTVEGEQILIEVE , thanks.
-0.652

Look up and state reported soluble fraction (log2) for HMSISEFNYTEFNGLVEKGQVSEVTISGREIEGRLTSGESFKTYSPETDNSALVGDLLKNNVKINGKP
-0.158

Look up soluble fraction (log2) of HMLQQKESAALGERLLNQALATLKVEPDAISWDRWEALAKEYGAKSQLDILADIGLGKRLSFVVAQALTKV and report it.
-0.698

Tell us which soluble fraction (log2) value is on record for HMDITGIGIKKRIKAIIDSEDKKNPLSDTQIVEILKNEGLEISRRTVAKYRSDLQIPSSSKRKK
0.335

Determine from records and report soluble fraction (log2) for HMELPVAVPHTELSPEALRGVVESFVLREGTDYGERDVPFEAKVAQVIRQLERGEARIMFDPVTQSVQIVT
-0.411

Return soluble fraction (log2) (reported value) for this sequence: HMENTIESLLKAKGFNDIIVTVSDKQVDVVVSDKEIADNKRAQIEDVIKRKTGLEASAITITPA
-0.332

Answer with the recorded soluble fraction (log2) for the sequence listed here: HMGRKPATTIPLQVRNAVLDLYRTKYYGANFQHYTELLHEHEGIRISTSSVAKILEAEYILSPK
-0.838

Return value of soluble fraction (log2) for input HMEETGFYIKLQDQEVVIFHNDQVTPYEYTGIREEVLPESELEKLREGFFVEDEKELYSVLENLS , no commentary.
-0.412

Return soluble fraction (log2) for the following sequence: HMSTINGIEKYLSSGLIPYIGPKTAKRIVEKFGLDTLEIIQYNPERLKEIEGIGDKKLKKIVEAFEEQG
-0.333

Specify soluble fraction (log2) for HMELLSGTVEKVLTSGVLVKLPGGAIGFIPNSEMGTPRGTNHGKMFPAGTPLQVMVVEVNQDRGRITLSR and stop.
-0.389

Please give measured soluble fraction (log2) of the following entry: HMKDASEFLGAKGKTITPLRPTGAAVINGEKVDVLAEGEFIPKNAEIVVIKVEGSKIIVRNANN
-0.0474

// Input: HMSQTDQALRHLIREAWATLPQRQQQAVELAYYEGLPDTEIAARLNQPVEEVKTSIVLGMAHLREALHSY . Output its soluble fraction (log2) only.
-0.198
